target: Kappa-type opioid receptor (Cavia porcellus, UniProt P41144)
Sequence (P41144 whole entry): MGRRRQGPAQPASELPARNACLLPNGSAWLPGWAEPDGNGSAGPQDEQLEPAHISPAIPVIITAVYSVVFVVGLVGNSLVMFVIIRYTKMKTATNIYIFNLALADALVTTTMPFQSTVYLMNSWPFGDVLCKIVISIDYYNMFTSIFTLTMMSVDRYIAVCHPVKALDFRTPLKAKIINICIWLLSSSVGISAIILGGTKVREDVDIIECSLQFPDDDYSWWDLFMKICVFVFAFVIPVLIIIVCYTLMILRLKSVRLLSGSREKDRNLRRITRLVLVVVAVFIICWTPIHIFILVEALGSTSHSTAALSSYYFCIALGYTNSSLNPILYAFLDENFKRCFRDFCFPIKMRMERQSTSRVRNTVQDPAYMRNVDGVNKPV
Measured pKi of individual entries
Worth noting: pKi values are minus log10 of concentrations stated in mol/L.

Recorded pKi, per entry:
// recorded pKi for CC[C@@H]1CN2CCc3c([nH]c4ccccc34)[C@@H]2C[C@@H]1/C(=C\OC)C(=O)OC [CORYNANRHEIDINE] : 5.59

// recorded pKi for `CC[C@@H]1CN2CCc3c([nH]c4cccc(O)c34)[C@@H]2C[C@@H]1/C(=C\OC)C(=O)OC` : 5.53

// recorded pKi for `CC[C@@H]1CN2CCc3c([nH]c4cccc(OC)c34)[C@@H]2C[C@@H]1/C(=C\OC)C(=O)OC` : 5.96

// recorded pKi for `CC[C@@H]1CN2CC[C@]3(Nc4cccc(OC)c4C3=O)[C@@H]2C[C@@H]1/C(=C\OC)C(=O)OC` : 7.10

Now for a further compound.
// recorded pKi for `CC[C@@H]1CN2CC[C@@]3(O)C(=Nc4cccc(OC)c43)[C@@H]2C[C@@H]1/C(=C\OC)C(=O)OC` : 6.91
